Assay: First-in-human phase 1 study: plasma pharmacokinetics of Compound 1
Format: in vivo
Conditions: both sexes, human, plasma, intravenous, 7 mg/kg, human plasma, single dose, 24 hours, Cohort 2 (7 mg/kg), compartmental (2) analysis, ± SE
experimental-readout: AUC(0-inf) (ng·h/mL)
// return numeric value only (unit: ng·h/mL, not printed)

query: // returns reported AUC(0-inf) for input CN[C@@H]1[C@@H](O)[C@@H](O[C@@H]2[C@@H](O)[C@H](O[C@H]3OC(CNCCO)=CC[C@H]3N)[C@@H](N)C[C@H]2NC(=O)[C@@H](O)CCN)OC[C@]1(C)O [Compound 1]
result: 89000

----------
Experiment: First-in-human phase 1 study: plasma pharmacokinetics of Compound 1
Assay type: in vivo
Settings: both sexes, human, plasma, intravenous, 4 mg/kg, human plasma, single dose, 24 hours, Cohort 1b (4 mg/kg), compartmental (2) analysis, ± SE; read-out: t1/2 beta (converted)
experimental-readout: half-life (h)
// return numeric value only (unit: h, not printed)

query: // returns reported half-life for input CN[C@@H]1[C@@H](O)[C@@H](O[C@@H]2[C@@H](O)[C@H](O[C@H]3OC(CNCCO)=CC[C@H]3N)[C@@H](N)C[C@H]2NC(=O)[C@@H](O)CCN)OC[C@]1(C)O
result: 3

----------
Test: Pharmacokinetics of Compound 1 after single bolus IV injection in rats
Type: in vivo, Sprague Dawley rats
Settings: Sprague Dawley, rat, plasma, iv, 10 mg/kg, 10 mg/kg single bolus IV, Mean ± SD, read-out: t1/2 (converted)
Protocol: Male CD-1 mice, Sprague Dawley rats, and beagle dogs were administered Compound 1 intravenously. Compound 1 was preformulated as a sterile isotonic solution of 10 mg/mL in PBS. […] Samples were centrifuged, and plasma was collected and transferred into a new tube and frozen at −80° C. until they were analyzed. Blood, urine, and kidney samples collected over 24 hours were analyzed for Compound 1 levels using LC-MS/MS. […]
experimental-readout: half-life

query: // returns reported half-life for input CN[C@@H]1[C@@H](O)[C@@H](O[C@@H]2[C@@H](O)[C@H](O[C@H]3OC(CNCCO)=CC[C@H]3N)[C@@H](N)C[C@H]2NC(=O)[C@@H](O)CCN)OC[C@]1(C)O
result: 56.4 min

----------
Settings: rat, in vivo, 100 mg/kg
experimental-readout: Body weight Day 14 (g)
// return numeric value only (unit: g, not printed)

query: // returns reported Body weight Day 14 for input NC[C@H]1O[C@H](O[C@H]2[C@H](O)[C@@H](O[C@H]3O[C@H](CO)[C@@H](O)[C@H](N)[C@H]3O)[C@H](N)C[C@@H]2N)[C@H](N)C[C@@H]1O [Tobramycin, tobramycin]
result: 299

----------
Assay: Pharmacokinetics of Compound 1 after single bolus IV injection in beagle dogs (plasma)
Format: in vivo
Details: male, beagle, dog, plasma, iv, 10 mg/kg, beagle dogs, 10 mg/kg single bolus IV; Mean ± SD; read-out: MRT0-∞
Description: Male CD-1 mice, Sprague Dawley rats, and beagle dogs were administered Compound 1 intravenously. Compound 1 was preformulated as a sterile isotonic solution of 10 mg/mL in PBS. […] Samples were centrifuged, and plasma was collected and transferred into a new tube and frozen at −80° C. until they were analyzed. Blood, urine, and kidney samples collected over 24 hours were analyzed for Compound 1 levels using LC-MS/MS. […]
experimental-readout: MRT inf (h)
// return numeric value only (unit: h, not printed)

query: // returns reported MRT inf for input CN[C@@H]1[C@@H](O)[C@@H](O[C@@H]2[C@@H](O)[C@H](O[C@H]3OC(CNCCO)=CC[C@H]3N)[C@@H](N)C[C@H]2NC(=O)[C@@H](O)CCN)OC[C@]1(C)O [Compound 1]
result: 1.34

----------
Consider the following compounds; for each one, report its Histopathology score (0 to 5 Scale): Dilation.
System: rat kidney
Test: Rat nephrotoxicity model: kidney histopathology (H&E)
Type: in vivo, Sprague-Dawley rats
Conditions: rats, 14 d once-daily, 100 mg/kg

query: Param readout= Histopathology score (0 to 5 Scale): Dilation; system= rat kidney; entry= CN[C@@H]1[C@@H](O[C@H]2O[C@H](CO)[C@@H](N)[C@H](O)[C@H]2O)OC2C[C@@H](N)[C@@H](O[C@H]3[C@H](O)[C@@H](O)[C@H](N)C[C@@H]3N)OC2[C@@H]1O (stereo partly shown) [Apramycin, apramycin] ; returns value.
result: 0.6 +/− 0.5

query: Try the compound NC[C@H]1O[C@H](O[C@H]2[C@H](O)[C@@H](O[C@H]3O[C@H](CO)[C@@H](O)[C@H](N)[C@H]3O)[C@H](N)C[C@@H]2N)[C@H](N)C[C@@H]1O [Tobramycin, tobramycin]
result: 1.6 +/− 1.1

query: Try the compound NCC[C@H](O)C(=O)N[C@@H]1C[C@H](N)[C@@H](O[C@H]2O[C@H](CN)[C@@H](O)[C@H](O)[C@H]2O)[C@H](O)[C@H]1O[C@H]1O[C@H](CO)[C@@H](O)[C@H](N)[C@H]1O [amikacin]
result: 0.2 +/− 0.4

query: Try the compound NC[C@@H]1O[C@H](O[C@H]2[C@@H](O)[C@H](O[C@@H]3[C@@H](O)[C@H](N)C[C@H](N)[C@H]3O[C@H]3O[C@H](CO)[C@@H](O)[C@H](O)[C@H]3N)O[C@@H]2CO)[C@H](N)[C@@H](O)[C@@H]1O [Paromomycin, paromomycin]
result: 3.2 +/− 0.4

----------
Assay: Pharmacokinetics of Compound 1 after single bolus IV injection in mice
Format: in vivo, CD-1 mice
Details: male, CD-1, mouse, plasma, 10 mg/kg single bolus IV, read-out: MRT0-∞
experimental-readout: MRT inf (min)
// return numeric value only (unit: min, not printed)

query: // returns reported MRT inf for input CN[C@@H]1[C@@H](O)[C@@H](O[C@@H]2[C@@H](O)[C@H](O[C@H]3OC(CNCCO)=CC[C@H]3N)[C@@H](N)C[C@H]2NC(=O)[C@@H](O)CCN)OC[C@]1(C)O
result: 36

----------
Test: First-in-human phase 1 study: plasma pharmacokinetics of Compound 1
Assay type: in vivo
Settings: both sexes, human, plasma, intravenous, 4 mg/kg, human plasma, single dose, 48 hours, Cohort 1b (4 mg/kg)
experimental-readout: AUC(0-inf) (ng·h/mL)
// return numeric value only (unit: ng·h/mL, not printed)

query: // returns reported AUC(0-inf) for input CN[C@@H]1[C@@H](O)[C@@H](O[C@@H]2[C@@H](O)[C@H](O[C@H]3OC(CNCCO)=CC[C@H]3N)[C@@H](N)C[C@H]2NC(=O)[C@@H](O)CCN)OC[C@]1(C)O
result: 61000

----------
Conditions: rat, in vivo, 30 mg/kg
experimental-readout: Body weight Day 9 (g)
// return numeric value only (unit: g, not printed)

query: // returns reported Body weight Day 9 for input NC[C@H]1O[C@H](O[C@H]2[C@H](O)[C@@H](O[C@H]3O[C@H](CO)[C@@H](O)[C@H](N)[C@H]3O)[C@H](N)C[C@@H]2N)[C@H](N)C[C@@H]1O
result: 307

----------
Test: Pharmacokinetics of Compound 1 after single bolus IV injection in rats
Assay type: in vivo, Sprague Dawley rats
Details: Sprague Dawley, rat, plasma, iv, 10 mg/kg, 10 mg/kg single bolus IV, Rat 103
experimental-readout: clearance (mL/min/kg)
// return numeric value only (unit: mL/min/kg, not printed)

query: // returns reported clearance for input CN[C@@H]1[C@@H](O)[C@@H](O[C@@H]2[C@@H](O)[C@H](O[C@H]3OC(CNCCO)=CC[C@H]3N)[C@@H](N)C[C@H]2NC(=O)[C@@H](O)CCN)OC[C@]1(C)O [Compound 1]
result: 11.3

----------
Experiment: First-in-human phase 1 study: plasma pharmacokinetics of Compound 1
Format: in vivo
Details: both sexes, human, plasma, intravenous, 7 mg/kg, human plasma, single dose, 24 hours, Cohort 2 (7 mg/kg), compartmental (2) analysis, ± SE
experimental-readout: Cmax (ng/mL)
// return numeric value only (unit: ng/mL, not printed)

query: // returns reported Cmax for input CN[C@@H]1[C@@H](O)[C@@H](O[C@@H]2[C@@H](O)[C@H](O[C@H]3OC(CNCCO)=CC[C@H]3N)[C@@H](N)C[C@H]2NC(=O)[C@@H](O)CCN)OC[C@]1(C)O
result: 40000

----------
Details: rat, in vivo, 30 mg/kg
experimental-readout: Body weight Day 3 (g)
// return numeric value only (unit: g, not printed)

query: // returns reported Body weight Day 3 for input NC[C@H]1O[C@H](O[C@H]2[C@H](O)[C@@H](O[C@H]3O[C@H](CO)[C@@H](O)[C@H](N)[C@H]3O)[C@H](N)C[C@@H]2N)[C@H](N)C[C@@H]1O
result: 264

----------
Conditions: rat, in vivo, 100 mg/kg
experimental-readout: Body weight Day 3 (g)
// return numeric value only (unit: g, not printed)

query: // returns reported Body weight Day 3 for input NC[C@H]1O[C@H](O[C@H]2[C@H](O)[C@@H](O[C@H]3O[C@H](CO)[C@@H](O)[C@H](N)[C@H]3O)[C@H](N)C[C@@H]2N)[C@H](N)C[C@@H]1O
result: 259

Cited source for all entries: patent US20120208781A1
